Attribute: protein stability index
B1: KRT13 (parent)
chain: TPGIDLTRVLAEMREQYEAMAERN

Variants of: B1
Assay: protein stability index of a GFP-peptide fusion (GPS, HEK-293T) (PSI 1-6); higher = more stable;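 note: lentivirally expressed fusions sorted by FACS into six bins by GFP to DsRed ratio, PSI derived from sequencing read proportions per bin multiplied by bin number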
Settings: c terminus: a fixed tail appended

Here are 4 variants together with their reported answers.
M13T = 4.53
G3L = 2.81
I4N = 2.62
T1I = 4.36

Determine from records and report protein stability index for A21V 3.55

Determine from records and report protein stability index for T1W 3.5

Determine from records and report protein stability index for E12W 3.06

Determine from records and report protein stability index for E15T 3.43

Determine from records and report protein stability index for R23Q 4.39

Determine from records and report protein stability index for Q16W 3.73

Determine from records and report protein stability index for V9P 4.49

Determine from records and report protein stability index for T1L 2.71
